Entry source: ChEMBL document CHEMBL5058577

Kindly state Population Membrane Permeable-Phenotype (%) for each of the entries shown.
test system: Fibroblast; test: Multiplex assay against human fibroblast; format: toxicity, cell-based; conditions: 12 h, 10 µM, compound concentration 10 uM, replicate 2
Give just the number in %; leave the unit off.

Given the entry N#Cc1cc(F)cc(-c2nc(-c3ccc(F)cn3)no2)c1 , what Population Membrane Permeable-Phenotype (%) was observed with Fibroblast?
9

Given the entry Cc1noc(-c2ccc(-c3ccc(CC(=O)O)cc3)cc2)c1NC(=O)O[C@H](C)c1ccccc1Cl , what Population Membrane Permeable-Phenotype (%) was observed with Fibroblast?
2

Given the entry CCCOc1ccc2[nH]cc(C3=CCNCC3)c2n1.Cl , what Population Membrane Permeable-Phenotype (%) was observed with Fibroblast?
1

Given the entry Cc1sc2c(c1C)C(c1ccc(Cl)cc1)=N[C@@H](CC(=O)NCCCCCCCCNC(=O)COc1cccc3c1C(=O)N(C1CCC(=O)NC1=O)C3=O)c1nnc(C)n1-2 (some centres undefined) , what Population Membrane Permeable-Phenotype (%) was observed with Fibroblast?
7

Given the entry Cl.N=C(N)NC(=O)Cc1c(Cl)cccc1Cl [GUANFACINE HYDROCHLORIDE] , what Population Membrane Permeable-Phenotype (%) was observed with Fibroblast?
5

Given the entry Cc1cccc(NC(=O)CN2CCC(c3ccccn3)CC2)c1.Cl.Cl , what Population Membrane Permeable-Phenotype (%) was observed with Fibroblast?
6

Given the entry COc1cccc2c1c(NS(=O)(=O)c1ccc(Cl)s1)nn2Cc1cccc(CNC(=O)C(C)(C)O)c1 , what Population Membrane Permeable-Phenotype (%) was observed with Fibroblast?
7

Given the entry Cl.NCCc1ccc(O)c(O)c1 [DOPAMINE HYDROCHLORIDE] , what Population Membrane Permeable-Phenotype (%) was observed with Fibroblast?
6

Given the entry CC[C@@H](C)Nc1nc(C)nc2c(-c3ccc(OC)nc3C)c(C)nn12 [PEXACERFONT] , what Population Membrane Permeable-Phenotype (%) was observed with Fibroblast?
7
